target: human TLR7 (Homo sapiens (Human), UniProt Q9NYK1); assay: TLR7 inhibition reporter assay (HEK-Blue, SEAP); settings: HEK-Blue cells overexpressing human TLR7, gardiquimod 7.5 μM stimulation
Sequence (Q9NYK1 27-1049): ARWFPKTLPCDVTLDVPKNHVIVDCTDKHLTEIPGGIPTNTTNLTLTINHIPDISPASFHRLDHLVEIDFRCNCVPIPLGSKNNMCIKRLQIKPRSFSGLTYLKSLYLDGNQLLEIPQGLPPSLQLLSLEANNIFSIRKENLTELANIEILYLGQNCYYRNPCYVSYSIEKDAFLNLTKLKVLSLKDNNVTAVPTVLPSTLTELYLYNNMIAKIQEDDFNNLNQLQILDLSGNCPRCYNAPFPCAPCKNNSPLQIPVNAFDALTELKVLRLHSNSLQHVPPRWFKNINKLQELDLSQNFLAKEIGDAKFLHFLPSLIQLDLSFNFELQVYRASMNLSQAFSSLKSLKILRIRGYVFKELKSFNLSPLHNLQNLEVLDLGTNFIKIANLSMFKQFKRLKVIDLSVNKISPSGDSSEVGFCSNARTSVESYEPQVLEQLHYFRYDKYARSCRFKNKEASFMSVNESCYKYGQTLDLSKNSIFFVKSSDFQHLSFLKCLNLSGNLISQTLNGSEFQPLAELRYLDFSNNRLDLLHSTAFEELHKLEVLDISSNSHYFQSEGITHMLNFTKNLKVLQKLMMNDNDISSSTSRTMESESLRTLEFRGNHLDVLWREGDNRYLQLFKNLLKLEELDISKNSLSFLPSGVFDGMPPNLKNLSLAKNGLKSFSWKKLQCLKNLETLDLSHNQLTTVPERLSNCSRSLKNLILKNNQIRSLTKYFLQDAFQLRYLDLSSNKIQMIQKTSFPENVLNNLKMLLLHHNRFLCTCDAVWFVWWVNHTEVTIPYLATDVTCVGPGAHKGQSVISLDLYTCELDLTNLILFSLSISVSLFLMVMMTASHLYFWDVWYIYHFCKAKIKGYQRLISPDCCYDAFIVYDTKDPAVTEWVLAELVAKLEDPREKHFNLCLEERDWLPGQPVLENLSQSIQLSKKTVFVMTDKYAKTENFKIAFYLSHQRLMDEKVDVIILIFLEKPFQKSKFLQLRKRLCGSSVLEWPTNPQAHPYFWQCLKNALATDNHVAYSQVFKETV
pIC50: −log10 of the molar value.
metric: pIC50

molecule | pIC50
Cc1cc(-c2[nH]c3ccc(-c4nnc(C(=O)NC5CCNC5)s4)cc3c2C(C)C)ccn1 (stereo not shown) [Example 137] | 7.54
CC(=O)N1CCN(Cc2nnc(-c3ccc4[nH]c(-c5ccnc6[nH]ncc56)c(C(C)C)c4c3)o2)CC1 [Example 153] | 5.80
COc1ccc(-c2[nH]c3ccc(-c4cccc(C(=O)N5CCNCC5)c4)cc3c2C(C)C)cc1OC [Example 1] | 6.97

(a) CC(C)c1c(-c2ccnc3[nH]ncc23)[nH]c2ccc(-c3nnc(C(=O)NCCN(C)C)s3)cc12 [Example 195]
(b) CC(C)c1c(-c2ccnc(N)c2)[nH]c2ccc(-c3nnc(C(=O)N(C)C)o3)cc12 [Example 166]
Exercise: I'm curious whether a or b has the smaller pIC50 number. Which is it? Answer format: the label of the selected item.
Solution: b

(1) COc1ccc(-c2[nH]c3ccc(-c4ccc(-c5cccc(CN6CCN(C)CC6)c5)cc4)cc3c2C(C)C)cc1OC [Example 373]
(2) COc1ccc(-c2[nH]c3ccc(-c4nnc(CN5CCCN(C(C)=O)CC5)o4)cc3c2C(C)C)cc1OC [Example 119]
Exercise: I'm curious whether 1 or 2 has the smaller pIC50 number. Which is it? Answer format: the label of the selected item.
Solution: 1
